All figures here come from patent US4281009A.

System: ddY-strain male mice
Experiment: Effect of prolongation of sleeping time (hexobarbital)
Type: in vivo
Settings: Mus musculus, ip, 100 mg/kg intraperitoneal

{"columns": ["compound", "change in vivo at 100 mg/kg"],
 "data": [
  ["O=C1NC(=O)C(c2ccccc2)(c2ccc(F)cc2)N1 (stereo not shown) [Compound 5, 5-(4-Fluorophenyl)-5-phenylhydantoin]", "31%"],
  ["O=C1NC(=O)C(c2ccc(O)cc2)(c2ccc(O)c(Cl)c2)N1 (stereo not shown) [Compound 33]", "24.2%"],
  ["O=C1NC(=O)C(c2ccc(O)cc2)(c2ccc(O)c(O)c2)N1 (stereo not shown) [Compound 14]", "20.2%"],
  ["O=C1NC(=O)C(c2ccccc2)(c2ccc(O)cc2)N1 (stereo not shown) [Compound 7, 5-(4-Hydroxyphenyl)-5-phenylhydantoin]", "112%"]
]}

###

Experiment: Acute toxicity test (LD50, Litchfield-Wilcoxon), rats
Settings: rat, in vivo, ip, female, intraperitoneal
Method: Toxicity tests were carried out by intraperitoneal administration of the compound of the present invention to groups each comprising 10 ICR-strain mice and SD-strain rats. LD50 was calculated by the Litchfield-Wilcoxon method based on the number of death 72 hours after the administration.
parameter: LD50 at 72 h

{"columns": ["compound", "parameter", "recorded result"],
 "data": [
  ["CCCOc1ccccc1C1(c2ccccc2OCCC)NC(=O)NC1=O [Compound 9, 5,5-Bis(2-propoxyphenyl)hydantoin]", "LD50 at 72 h", "> 5000 mg/kg"],
  ["COc1ccc(C2(c3ccc(OC)c(OC)c3)NC(=O)NC2=O)cc1OC [Compound 19, 5,5-Bis(3,4-dimethoxyphenyl)hydantoin]", "LD50 at 72 h", "> 5000 mg/kg"],
  ["O=C1NC(=O)C(c2cc(O)c(O)c(O)c2)(c2cc(O)c(O)c(O)c2)N1 [Compound 36, 5,5-Bis(3,4,5-trihydroxyphenyl)hydantoin]", "LD50 at 72 h", "1020 mg/kg"],
  ["COc1ccc(C2(c3ccc(O)cc3)NC(=O)NC2=O)cc1 (stereo not shown) [Compound 11]", "LD50 at 72 h", "> 5000 mg/kg"],
  ["O=C1NC(=O)C(c2ccc(O)cc2)(c2ccc(O)c(Cl)c2)N1 (stereo not shown) [Compound 33]", "LD50 at 72 h", "> 5000 mg/kg"],
  ["O=C1NC(=O)C(c2ccc(O)cc2O)(c2ccc(O)cc2O)N1 [Compound 34, 5,5-Bis(2,4-dihydroxyphenyl)hydantoin]", "LD50 at 72 h", "2000 to 3000 mg/kg"],
  ["O=C1NC(=O)C(c2ccc(O)c(O)c2)(c2ccc(O)c(O)c2)N1 [Compound 17, 5,5-Bis(3,4-dihydroxyphenyl)hydantoin]", "LD50 at 72 h", "2220 mg/kg"]
]}

###

Assay: Acute toxicity test (LD50, Litchfield-Wilcoxon), rats
Details: rat, in vivo, ip, male, intraperitoneal
The entries below come with measured LD50 at 72 h values attached.
parameter: LD50 at 72 h

{"columns": ["compound", "recorded result"],
 "data": [
  ["COc1ccc(C2(c3ccc(OC)cc3OC)NC(=O)NC2=O)cc1 (stereo not shown) [Compound 15]", "> 5000 mg/kg"],
  ["COc1ccc(C2(c3ccc(OC)cc3OC)NC(=O)NC2=O)c(OC)c1 [Compound 18, 5,5-Bis(2,4-Dimethoxyphenyl)hydantoin]", "> 5000 mg/kg"],
  ["O=C1NC(=O)C(c2ccc(O)c(O)c2)(c2ccc(O)c(O)c2)N1 [Compound 17, 5,5-Bis(3,4-dihydroxyphenyl)hydantoin]", "2400 mg/kg"],
  ["O=C1NC(=O)C(c2ccc(O)cc2)(c2ccc(O)cc2)N1 [Compound 4, 5,5-Bis(4-hydroxyphenyl)hydantoin]", "1370 mg/kg"],
  ["COc1ccc(C2(c3ccc(OC)c(C)c3)NC(=O)NC2=O)cc1 (stereo not shown) [Compound 3]", "> 5000 mg/kg"],
  ["O=C1NC(=O)C(c2ccc(O)cc2)(c2ccc(O)c(Cl)c2)N1 (stereo not shown) [Compound 33]", "> 5000 mg/kg"],
  ["O=C1NC(=O)C(c2ccc(O)cc2)(c2ccc(O)cc2O)N1 (stereo not shown) [Compound 31]", "1540 mg/kg"],
  ["CCCOc1ccccc1C1(c2ccccc2OCCC)NC(=O)NC1=O [Compound 9, 5,5-Bis(2-propoxyphenyl)hydantoin]", "> 5000 mg/kg"],
  ["Cc1ccc(C2(c3ccc(C)cc3)NC(=O)NC2=O)cc1 [Compound 13, 5,5-Bis(4-methylphenyl)hydantoin]", "> 5000 mg/kg"],
  ["COc1cc(C2(c3cc(OC)c(OC)c(OC)c3)NC(=O)NC2=O)cc(OC)c1OC [Compound 23, 5,5-Bis(3,4,5-trimethoxyphenyl)hydantoin]", "> 5000 mg/kg"],
  ["O=C1NC(=O)C(c2ccccc2O)(c2ccccc2O)N1 [Compound 29, 5,5-Bis(2-hydroxyphenyl)hydantoin]", "1980 mg/kg"],
  ["O=C1NC(=O)C(c2ccccc2)(c2ccccc2O)N1 (stereo not shown) [Compound 6, 5-(2-Hydroxyphenyl)-5-phenylhydantoin]", "> 5000 mg/kg"],
  ["O=C1NC(=O)C(c2ccc(O)cc2O)(c2ccc(O)cc2O)N1 [Compound 34, 5,5-Bis(2,4-dihydroxyphenyl)hydantoin]", "2000 to 3000 mg/kg"],
  ["O=C1NC(=O)C(c2ccc(O)cc2)(c2cccs2)N1 (stereo not shown) [Compound 1]", "> 3000 mg/kg"],
  ["CCCOc1ccc(C2(c3ccc(OCCC)cc3)NC(=O)NC2=O)cc1 [Compound 10, 5,5-Bis(4-propoxyphenyl)hydantoin]", "4000 mg/kg"],
  ["COc1ccc(C2(c3ccc(OC)c(OC)c3)NC(=O)NC2=O)cc1 (stereo not shown) [Compound 16]", "> 5000 mg/kg"]
]}
